# pEC50 per entry
- Assayed system: adenosine A2a receptor (Homo sapiens)
- Test protocol: Indirect determination of adenosine agonism by gene expression (luciferase, cAMP-dependent promoter), A2a cells
- Measurement conditions: CHO cells stably transfected with A2a receptor cDNA; 50% of maximum stimulation of luciferase
pEC50: −log10 of the molar value.
Quantity kind: pEC50

>>> numeric_value("Cc1cccc(Nc2nc(CSc3nc(N)c(C#N)c(-c4ccc(OCC(O)CO)cc4)c3C#N)cs2)c1 (centres unmarked) [Example 2]")
6.13
>>> numeric_value("N#Cc1c(N)nc(SCc2csc(Nc3cccc(Cl)c3)n2)c(C#N)c1-c1ccc(OC[C@@H](O)CO)cc1 [Example 35]")
6.85
>>> numeric_value("N#Cc1ccc(Nc2nc(CSc3nc(N)c(C#N)c(-c4ccc(OCCO)cc4)c3C#N)cs2)cc1 [Example 21]")
6.99
>>> numeric_value("N#Cc1c(N)nc(SCc2csc(Nc3ccc(F)cc3)n2)c(C#N)c1-c1ccc(OCCO)cc1 [Example 8]")
6.52
>>> numeric_value("COc1cc(Nc2nc(CSc3nc(N)c(C#N)c(-c4ccc(OC[C@@H](O)CO)cc4)c3C#N)cs2)ccc1F [Example 39]")
5.92
>>> numeric_value("N#Cc1c(N)nc(SCc2csc(Nc3ccc(F)c(Cl)c3)n2)c(C#N)c1-c1ccc(OC[C@@H](O)CO)cc1 [Example 48]")
6.85
>>> numeric_value("N#Cc1c(N)nc(SCc2csc(Nc3ccc(C(=O)O)cc3)n2)c(C#N)c1-c1ccc(OCCO)cc1 [Example 13]")
6.63
>>> numeric_value("N#Cc1c(N)nc(SCc2csc(Nc3cccc(F)c3)n2)c(C#N)c1-c1ccc(OC[C@@H](O)CO)cc1 [Example 44]")
6.85

* * *

- Assayed system: adenosine A1 receptor (Homo sapiens)
- Construct: expressed in transfected cells; host or cells: CHO (Chinese Hamster Ovary) cells, stably transfected
- Sequence (P30542 1-326): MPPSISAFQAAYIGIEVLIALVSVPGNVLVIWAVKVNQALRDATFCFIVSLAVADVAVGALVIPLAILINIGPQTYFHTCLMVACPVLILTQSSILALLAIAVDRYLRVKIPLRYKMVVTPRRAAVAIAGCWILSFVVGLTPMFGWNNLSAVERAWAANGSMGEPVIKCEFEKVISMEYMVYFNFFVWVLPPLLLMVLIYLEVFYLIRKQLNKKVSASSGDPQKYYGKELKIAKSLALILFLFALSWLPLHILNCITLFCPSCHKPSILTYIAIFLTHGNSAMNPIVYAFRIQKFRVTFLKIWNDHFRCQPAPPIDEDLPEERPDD
- Test protocol: Indirect determination of adenosine agonism by gene expression (luciferase, cAMP-dependent promoter), A1 cells
- Assay type: cell-based
- Measurement conditions: CHO cells stably transfected with A1 receptor cDNA; 1 μM forskolin; concentration at which 50% of the luciferase answer is inhibited
Where a name gives a salt, the structure may show the parent alone.
Values of EC50 strictly less than 0.6 nM map to Fulfilled, and values of at least 0.6 nM map to Not fulfilled.

>>> class_name("N#Cc1c(N)nc(SCc2csc(Nc3ccc(F)c(Cl)c3)n2)c(C#N)c1-c1ccc(OC[C@@H](O)CO)cc1")
"Fulfilled"
>>> class_name("Cc1cccc(Nc2nc(CSc3nc(N)c(C#N)c(-c4ccc(OCC(O)CO)cc4)c3C#N)cs2)c1 (stereo not shown)")
"Not fulfilled"
>>> class_name("N#Cc1c(N)nc(SCc2csc(Nc3ccc(C(=O)O)cc3)n2)c(C#N)c1-c1ccc(OCCO)cc1")
"Fulfilled"
>>> class_name("N#Cc1ccc(Nc2nc(CSc3nc(N)c(C#N)c(-c4ccc(OCCO)cc4)c3C#N)cs2)cc1")
"Not fulfilled"
>>> class_name("N#Cc1c(N)nc(SCc2csc(Nc3ccc(F)cc3)n2)c(C#N)c1-c1ccc(OCCN)cc1 [Example 70, hydrochloride]")
"Not fulfilled"
>>> class_name("COc1cc(Nc2nc(CSc3nc(N)c(C#N)c(-c4ccc(OC[C@@H](O)CO)cc4)c3C#N)cs2)ccc1F")
"Fulfilled"

* * *

- Assayed system: adenosine A1 receptor (Homo sapiens)
- Construct: expressed in transfected cells; host or cells: CHO (Chinese Hamster Ovary) cells, stably transfected
- Test protocol: Indirect determination of adenosine agonism by gene expression (luciferase, cAMP-dependent promoter), A1 cells
- Assay type: cell-based
- Measurement conditions: CHO cells stably transfected with A1 receptor cDNA; 1 μM forskolin; concentration at which 50% of the luciferase answer is inhibited
EC50 for assorted molecules
Quantity kind: EC50 (nM)

>>> numeric_value("N#Cc1c(N)nc(SCc2csc(Nc3ccc(F)cc3)n2)c(C#N)c1-c1ccc(OCCO)cc1")
1
>>> numeric_value("COCCOc1ccc(-c2c(C#N)c(N)nc(SCc3csc(Nc4ccc(C)cc4)n3)c2C#N)cc1")
23
>>> numeric_value("N#Cc1c(N)nc(SCc2csc(Nc3cccc(Cl)c3)n2)c(C#N)c1-c1ccc(OC[C@@H](O)CO)cc1")
0.4
>>> numeric_value("N#Cc1c(N)nc(SCc2csc(Nc3ccc(F)cc3F)n2)c(C#N)c1-c1ccc(OCCO)cc1")
2

* * *

- Assayed system: adenosine A2a receptor (Homo sapiens, UniProt P29274)
- Sequence (P29274 whole entry): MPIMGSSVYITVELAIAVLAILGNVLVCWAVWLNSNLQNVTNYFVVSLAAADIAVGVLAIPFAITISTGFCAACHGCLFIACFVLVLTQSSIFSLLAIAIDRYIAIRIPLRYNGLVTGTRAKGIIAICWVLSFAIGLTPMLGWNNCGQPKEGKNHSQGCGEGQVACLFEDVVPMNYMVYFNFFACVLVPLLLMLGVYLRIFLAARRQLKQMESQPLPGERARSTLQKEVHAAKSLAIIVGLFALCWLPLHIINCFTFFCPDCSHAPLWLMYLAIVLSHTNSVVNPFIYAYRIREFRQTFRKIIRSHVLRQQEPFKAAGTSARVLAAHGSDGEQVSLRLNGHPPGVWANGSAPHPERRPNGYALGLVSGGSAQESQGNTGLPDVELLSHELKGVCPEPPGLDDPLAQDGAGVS
- Test protocol: Indirect determination of adenosine agonism by gene expression (luciferase, cAMP-dependent promoter), A2a cells
- Measurement conditions: CHO cells stably transfected with A2a receptor cDNA; 50% of maximum stimulation of luciferase
pEC50: −log10 of the molar value. Counter-ions that a name gives are not always drawn.
Quick reference for pEC50 among some compounds
Quantity kind: pEC50

>>> result("N#Cc1c(N)nc(SCc2csc(Nc3ccc(F)cc3)n2)c(C#N)c1-c1ccc(OCCN)cc1 [Example 70, hydrochloride]")
"< 5.52"
>>> result("COCCOc1ccc(-c2c(C#N)c(N)nc(SCc3csc(Nc4ccc(C)cc4)n3)c2C#N)cc1")
"< 5.52"
>>> result("N#Cc1c(N)nc(SCc2csc(Nc3ccc(F)cc3F)n2)c(C#N)c1-c1ccc(OCCO)cc1")
"< 6.70"
